Catalogue of compounds with associated UI
Test system: Rattus norvegicus
Test Name: Gastrointestinal toxicity in albino rat assessed ulcer index at 60 mg/kg, po after 17 hrs
Format: organism-based
Design: dose 60 mg/kg, route oral
Assay Conditions: in vivo
Test Readout: UI

Compound: O=C1/C(=C/c2ccc(Cl)cc2)C=C(c2ccc(Cl)cc2)N1Cc1ccccc1
Number: 0.1
--
Compound: COc1ccc(/C=C2\C=C(c3ccc(Cl)cc3)OC2=O)cc1OC
Number: 0.3
--
Compound: O=C1OC(c2ccc(Cl)cc2)=C/C1=C\c1ccc([N+](=O)[O-])cc1
Number: 0.4
--
Compound: O=C1OC(c2ccc(Cl)cc2)=C/C1=C\c1ccc(F)cc1
Number: 0.4
--
Compound: CC(C)Cc1ccc(C(C)C(=O)O)cc1 (stereo unspecified)
Number: 0.9
--
Compound: O=C1/C(=C/c2ccccc2)C=C(c2ccc(Cl)cc2)N1Cc1ccccc1
Number: 0.6

###

System: Rattus norvegicus
Test Name: Antiinflammatory activity in Wistar rat assessed as inhibition of carrageenan-induced paw odema at 20 mg/kg, po pretreated 30 mins pre-carrageenan challenge measured after 3 hrs relative to control
Type: functional
Catalogue of compounds with associated inhibition in vivo at 20 mg/kg
Test Readout: inhibition in vivo at 20 mg/kg (%)

Compound: O=C1OC(c2ccc(Cl)cc2)=C/C1=C\c1ccc(Cl)cc1Cl
Number: 72.6
--
Compound: O=C1/C(=C/c2ccc(F)cc2)C=C(c2ccc(Cl)cc2)N1Cc1ccccc1
Number: 89.5
--
Compound: COc1cc(/C=C2\C=C(c3ccc(Cl)cc3)OC2=O)ccc1OC(C)=O
Number: 37
--
Compound: O=C1/C(=C/c2ccc(Cl)cc2)C=C(c2ccc(Cl)cc2)N1Cc1ccccc1
Number: 88.9
--
Compound: COc1ccc(/C=C2\C=C(c3ccc(Cl)cc3)OC2=O)cc1OC
Number: 36
--
Compound: COc1cc(/C=C2\C=C(c3ccc(Cl)cc3)N(Cc3ccccc3)C2=O)ccc1O
Number: 42
--
Compound: O=C1OC(c2ccc(Cl)cc2)=C/C1=C\c1ccccc1[N+](=O)[O-]
Number: 18.5
--
Compound: O=C1OC(c2ccc(Cl)cc2)=C/C1=C\c1ccc(F)cc1
Number: 70.4
--
Compound: O=C1/C(=C/c2ccccc2)C=C(c2ccc(Cl)cc2)N1Cc1ccccc1
Number: 37
--
Compound: O=C1OC(c2ccc(Cl)cc2)=C/C1=C\c1ccccc1
Number: 36
--
Compound: COc1ccc(/C=C2\C=C(c3ccc(Cl)cc3)OC2=O)cc1
Number: 32.3
--
Compound: O=C1OC(c2ccc(Cl)cc2)=C/C1=C\c1ccc([N+](=O)[O-])cc1
Number: 36
--
Compound: O=C1/C(=C/c2ccc([N+](=O)[O-])cc2)C=C(c2ccc(Cl)cc2)N1Cc1ccccc1
Number: 19.8
--
Compound: CC(C)Cc1ccc(C(C)C(=O)O)cc1 (stereo unspecified)
Number: 89.5
--
Compound: O=C1OC(c2ccc(Cl)cc2)=C/C1=C\c1ccc(Cl)cc1
Number: 69.1
--
Compound: O=C1OC(c2ccc(Cl)cc2)=C/C1=C\c1ccccc1Cl
Number: 81.5
